The measurements presented in this section are drawn from ChEMBL document CHEMBL1124759.

- PROTOCOL DETAILS: Tested for aqueous solubility
- RECORDED CONDITIONS: aqueous medium
Lab note: compare solubility against 800 µg/mL. Equal or greater, write rule met. Smaller, write rule not met.

Does the molecule CC(C)(C)n1cc(C(=O)O)c(=O)c2cc(F)c(N3CCC(N)C3)cc21.Cl (stereo not given) have recorded solubility that is 800 µg/mL or more?
rule not met

Param item: CC(C)(C)n1cc(C(=O)O)c(=O)c2cc(F)c(N3CCNCC3)cc21
rule not met

Param item: CC1CN(c2cc3c(cc2F)c(=O)c(C(=O)O)cn3C(C)(C)C)CCN1 (stereo not given)
rule met

Param item: CC(C)(C)n1cc(C(=O)O)c(=O)c2cc(F)c(N3C[C@H]4C[C@@H]3CN4)nc21
rule not met
